# System: E. coli, BL21 cells
# Format: cell-based
# conditionLabel: E. coli BL21; broth microdilution; 33% TSB medium; conducted in triplicate
No end group written: not given here.
Property: MIC, TSB; scope: individual sequences
Please give a number only; it is taken to be in µM.

[
  {
    "sequenceRecord": "GNRRPVYIPVPRPPYPRL [Peptide R3V10Y15]",
    "MIC, TSB, µM": 2
  },
  {
    "sequenceRecord": "GNRRPMYIPRPRPPHPRE [Peptide R3M6R10E18]",
    "MIC, TSB, µM": 8
  }
]

Item: GNNRPGYQPKPRPPHPRL [Peptide G6Q8K10] | MIC, TSB: 0.5

Item: TNARPVNAPQPRPPHPRL [Peptide T1A3N7A8] | MIC, TSB: 8

Item: GNNRPGYIPPPRPPHPRL [Peptide G6P10] | MIC, TSB: 0.5

====

Property: MIC, TSB; scope: individual sequences
# Test system: E. coli, BL21 cells
# Assay type: cell-based
# conditionLabel: E. coli BL21; broth microdilution; 33% TSB medium; conducted in triplicate
No end group written: not given here.
Please give a number only; it is taken to be in µM.

Examples with answers:
[
  {
    "sequenceRecord": "GNNRPGYDRQPRPPHPRL [Peptide G6D8R9]",
    "resultValue": 8
  },
  {
    "sequenceRecord": "SVMRPVYKPQPRPPHPRL [Peptide S1V2M3K8]",
    "resultValue": 0.5
  }
]

Lab note: next sequence to report on.
Item: GNNRPVYAYQPRPPHPRT [Peptide A8Y9T18] | MIC, TSB: 4

====

# Tested on: E. coli, BL21 cells
# Format: cell-based
# conditionLabel: E. coli BL21; broth microdilution; 33% TSB medium; conducted in triplicate
No end group written: not given here.
Property: MIC, TSB; scope: individual sequences
Please give a number only; it is taken to be in µM.

Examples with answers:
[
  {
    "sequenceRecord": "GNNRPVYIPQPRPPHPRL [Api Ib, Apidaecin 1b, reference compound]",
    "resultValue": 0.5
  },
  {
    "sequenceRecord": "GNNRPVYIPKPPTPHPRL [Peptide K10P12T13]",
    "resultValue": 1
  },
  {
    "sequenceRecord": "GNNRPVYIPKPRPPYPRK [Peptide K10Y15K18]",
    "resultValue": 2
  },
  {
    "sequenceRecord": "GYNRPAYIPRPRPPHPRR [Peptide Y2A6R10R18]",
    "resultValue": 1
  }
]

Lab note: next sequence to report on.
Item: GRNRPVYIPKPRPPHPRL [Peptide R2K10] | MIC, TSB: 0.25

====

# Tested on: E. coli, BL21 cells
# Type: cell-based
# conditionLabel: E. coli BL21; broth microdilution; 33% TSB medium; conducted in triplicate
No end group written: not given here.
reportedEndpoint: MIC, TSB

Examples with answers:
[
  {
    "sequenceRecord": "GKNRPVYIYQPKPPIPRL [Peptide K2Y9K12I15]",
    "MIC, TSB": ">64 µM"
  },
  {
    "sequenceRecord": "GNNRPVCAPQPAWPTGRL [C7A8A12W13T15G16]",
    "MIC, TSB": ">64 µM"
  }
]

Lab note: next sequence to report on.
Item: GNNRPVECPQPRPRVPRL [Peptide E7C8R14V15] | MIC, TSB: >64 µM
